Values were extracted from patent US20260234276A1.

Target: T1, human CCR8 (human, UniProt P51685 1-355)
T1 construct: the cells are named under assay; also called hCCR8
Assay: flow cytometry, hCCR8 transfected CHOK1 cells
Readout: MFI fold change to isotype ctrl

Binder	Experimental value
3-49 (antibody, V domains shown) VH: EVQLQQSGPELVKPGASVKISCKTSGYTFTEYTMHWVKQSHGKSLEWIGGINPNNGDTNYNQKFMGKATLTVDKSSSTAYMELRSLTSEDSAVYYCVRRLLRRGAMDYWGQGTSVTVSS VL: DIVLTQSPASLAVSLGQRATISCRASENVEYYGTSLMQWFQQKPGQPPKLLIYAASNVDSGVPARFSGSGSGTDFSLNIHPVEEDDIAMYFCQQSRKVPWTFGGGTKLDIK	6.52 fold
3-45 (antibody, V domains shown) VH: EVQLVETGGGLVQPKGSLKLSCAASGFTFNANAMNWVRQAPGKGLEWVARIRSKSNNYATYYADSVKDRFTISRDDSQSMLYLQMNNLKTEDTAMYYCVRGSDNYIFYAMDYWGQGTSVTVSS VL: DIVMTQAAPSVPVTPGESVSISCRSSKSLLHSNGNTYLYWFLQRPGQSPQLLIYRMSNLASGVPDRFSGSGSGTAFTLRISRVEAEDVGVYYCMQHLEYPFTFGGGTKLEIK	6.11 fold
